assay_system: Serine/threonine-protein phosphatase PP1-beta catalytic subunit (Homo sapiens) (UniProt P62140)
Sequence (P62140 whole entry, looked up): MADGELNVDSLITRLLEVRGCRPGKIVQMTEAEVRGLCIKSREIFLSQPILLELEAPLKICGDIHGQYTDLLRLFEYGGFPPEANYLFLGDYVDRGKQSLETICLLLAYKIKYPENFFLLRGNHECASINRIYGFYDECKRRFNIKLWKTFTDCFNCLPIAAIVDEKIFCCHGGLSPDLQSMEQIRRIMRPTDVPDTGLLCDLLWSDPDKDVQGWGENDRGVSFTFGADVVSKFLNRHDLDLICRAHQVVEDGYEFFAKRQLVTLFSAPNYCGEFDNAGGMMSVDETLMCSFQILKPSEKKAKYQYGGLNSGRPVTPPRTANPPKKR
assay: PubChem AID 463226
reported_conditions: purified PP1, 33P-phosphohistone dephosphorylation, scintillation
Active and inactive are the calls of the source. The rule behind the calls is not given here.
Lab note: assign the record to one of active, inactive

molecule: O=C(O)C1C2CCC(O2)C1C(=O)NC1CCCCC1 (configuration not stated)
discrete_label: active

Please find the next molecule below.
Which outcome was assigned to O=C(O)c1n[nH]nc1-c1ccccc1 in this test?
inactive

Where do these numbers come from? They come from PubChem BioAssay AID463226.
